# target-desc: T1, human SIRPα v1-Fc (SIRPα1 extracellular domain fused to human IGHG1_Fc) (human, UniProt P78324 31-373; P0DOX5 223-449 = IgG part)
# T1 construct: also called V1 (e.g. SIRPα1); SIRPα V1: DLN
# test-protocol: BLI Octet, antigen-Fc on biosensor;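 also: antigen captured on the biosensor tip and then immersed in solutions of the test antibodies, which act as the analyte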
So I've got a bunch of binders here, and I need their koff values.
Response body: numeric value in s⁻¹, unit text excluded.

Query: For the binder SIRPAB-9 (antibody, human IgG1, kappa, V domains shown) VH: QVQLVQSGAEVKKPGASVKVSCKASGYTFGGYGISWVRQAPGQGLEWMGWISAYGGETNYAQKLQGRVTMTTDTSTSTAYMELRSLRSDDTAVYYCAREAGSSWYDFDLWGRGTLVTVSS VL: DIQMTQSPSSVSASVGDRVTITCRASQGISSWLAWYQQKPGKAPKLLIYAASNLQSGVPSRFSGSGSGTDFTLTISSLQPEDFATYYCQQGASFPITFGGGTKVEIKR , what koff is on record?
Result: 0.000757

Query: For the binder SIRPAB-13 (antibody, human IgG1, kappa, V domains shown) VH: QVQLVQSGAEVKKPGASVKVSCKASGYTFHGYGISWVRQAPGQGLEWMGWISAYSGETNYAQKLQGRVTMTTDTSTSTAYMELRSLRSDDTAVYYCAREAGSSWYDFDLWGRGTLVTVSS VL: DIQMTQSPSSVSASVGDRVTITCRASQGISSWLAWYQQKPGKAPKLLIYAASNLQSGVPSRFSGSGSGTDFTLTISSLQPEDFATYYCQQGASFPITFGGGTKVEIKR , what koff is on record?
Result: 0.00205

Query: For the binder SIRPAB-10 (antibody, human IgG1, kappa, V domains shown) VH: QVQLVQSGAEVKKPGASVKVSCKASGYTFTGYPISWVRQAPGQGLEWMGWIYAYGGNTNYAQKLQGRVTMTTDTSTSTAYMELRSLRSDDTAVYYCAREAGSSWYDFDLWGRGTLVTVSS VL: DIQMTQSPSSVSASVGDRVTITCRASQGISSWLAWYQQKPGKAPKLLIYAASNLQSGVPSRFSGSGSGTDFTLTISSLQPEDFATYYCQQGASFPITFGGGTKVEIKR , what koff is on record?
Result: 0.000345

Query: For the binder SIRPAB-7 (antibody, human IgG1, kappa, V domains shown) VH: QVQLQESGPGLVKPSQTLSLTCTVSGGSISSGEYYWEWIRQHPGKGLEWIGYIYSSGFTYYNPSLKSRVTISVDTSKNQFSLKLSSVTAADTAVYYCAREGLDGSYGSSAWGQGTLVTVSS VL: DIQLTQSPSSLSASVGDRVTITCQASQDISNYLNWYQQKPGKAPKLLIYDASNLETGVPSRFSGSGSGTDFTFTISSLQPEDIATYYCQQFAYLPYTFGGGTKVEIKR , what koff is on record?
Result: 0.000271
